Reference source for all entries: patent US8058475B2

# System Name: human μ-opiate receptor (Homo sapiens, UniProt P35372)
# Sequence (P35372 whole entry): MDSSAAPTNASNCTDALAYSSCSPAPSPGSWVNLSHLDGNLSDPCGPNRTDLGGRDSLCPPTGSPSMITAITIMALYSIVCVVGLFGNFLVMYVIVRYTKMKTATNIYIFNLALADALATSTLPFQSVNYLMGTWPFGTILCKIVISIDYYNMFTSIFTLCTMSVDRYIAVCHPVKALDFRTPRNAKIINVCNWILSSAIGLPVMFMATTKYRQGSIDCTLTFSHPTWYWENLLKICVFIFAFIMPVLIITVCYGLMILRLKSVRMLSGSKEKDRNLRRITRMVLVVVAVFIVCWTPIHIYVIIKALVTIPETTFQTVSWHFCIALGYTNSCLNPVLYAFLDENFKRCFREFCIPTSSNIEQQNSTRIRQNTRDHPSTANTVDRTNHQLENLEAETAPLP
# Assay Comment: Affinity for the human μ-opiate receptor ([3H]-naloxone displacement, SPA, CHO-K1 membrane preparation)
# Type: binding
# Setup Conditions: 1 µM
Measured Metric: μ-Opioid receptor, % inhibition [1 μM] (%)
Kindly answer with a numeric value in %, unit omitted.

Examples with answers:
CC(=O)N(C(C)Cc1c[nH]c2ccccc12)C1CCC(C(c2ccccc2)N(C)C)CC1 (stereo not drawn) [compound 177]: 86
CN(C)C(c1ccccc1)C1CCC(NC(=O)CC(C)(C)C)CC1 (single isomer, unassigned) [compound 246]: 82
CN(C)C(c1ccccc1)C1CCC(CCNC(=O)c2cccnc2Sc2ccc(Cl)cc2)CC1 (single isomer, unassigned) [compound 471]: 82

// μ-Opioid receptor, % inhibition [1 μM] (human μ-opiate receptor (Homo sapiens, UniProt P35372)) for CN(C)C(CCc1ccccc1)C1CCC(NC(=O)c2ccc(F)c(C(F)(F)F)c2)CC1 (single isomer, unassigned) [compound 227] = 87

// μ-Opioid receptor, % inhibition [1 μM] (human μ-opiate receptor (Homo sapiens, UniProt P35372)) for Cc1ccccc1C(=O)NCCC1CCC(C(c2ccccc2)N(C)C)CC1 (single isomer, unassigned) [compound 418] = 92

// μ-Opioid receptor, % inhibition [1 μM] (human μ-opiate receptor (Homo sapiens, UniProt P35372)) for CN(C)C(c1ccccc1)C1CCC(CCNC(=O)c2cccc(Cl)c2)CC1 (single isomer, unassigned) [compound 398] = 101

====

# System Name: human μ-opiate receptor (Homo sapiens, UniProt P35372)
# Assay Comment: Affinity for the human μ-opiate receptor ([3H]-naloxone displacement, SPA, CHO-K1 membrane preparation)
# Type: binding
# Setup Conditions: read-out: μ-Opioid receptor, Ki
Classify: TRUE when Ki is strictly less than 50 nM; FALSE when Ki is not.

CN(C)C(c1cccs1)C1CCC(CCNC(=O)c2cc(F)c(Cl)cc2Cl)CC1 (centres unmarked): TRUE
Cc1oc(-c2ccccc2)cc1C(=O)NCC1CCC(C(c2cccc(F)c2)N(C)C)CC1 (centres unmarked) [compound 373]: FALSE
CN(C)C(c1ccccc1)C1CCC(NC(=O)Cc2ccc(Cl)cc2)CC1 (centres unmarked): FALSE

Input CN(C)C(c1ccccc1)C1CCC(CNC(=O)c2cncc(Br)c2)CC1 (centres unmarked) ; condition: Ki strictly below 50 nM. Does it hold?
FALSE

Input CN(C)C(c1ccc(Cl)cc1)C1CCC(CNC(=O)C(c2ccccc2)c2ccccc2)CC1 (centres unmarked) ; condition: Ki strictly below 50 nM. Does it hold?
FALSE

Input CN(C)C(c1ccccc1)C1CCC(CNC(=O)c2cccc(C(F)(F)F)c2)CC1 (single isomer, unassigned) [compound 333] ; condition: Ki strictly below 50 nM. Does it hold?
TRUE

Input COc1cccc(OC)c1C(=O)NCC1CCC(C(c2cccs2)N(C)C)CC1 (centres unmarked) ; condition: Ki strictly below 50 nM. Does it hold?
TRUE

Input CN(C)C(c1cccc(F)c1)C1CCC(CCNC(=O)c2cc(F)cc(F)c2)CC1 (centres unmarked) ; condition: Ki strictly below 50 nM. Does it hold?
TRUE

====

# System Name: human μ-opiate receptor (Homo sapiens, UniProt P35372)
# Assay Comment: Affinity for the human μ-opiate receptor ([3H]-naloxone displacement, SPA, CHO-K1 membrane preparation)
# Format: binding
# Setup Conditions: read-out: μ-Opioid receptor, % inhibition [1 μM]
Please use yes (1) whenever inhibition at 1 µM is not below 90%, and no (0) whenever it is.

Past entries and their recorded results:
CN(C)C(c1ccccc1)C1CCC(CNC(=O)c2ccc(F)c(F)c2)CC1 (single isomer, unassigned): yes (1)
CN(C)C(c1ccc(Cl)cc1)C1CCC(CCNC(=O)c2ccc(F)cc2)CC1 (stereo not shown): no (0)
Cc1c(S(=O)(=O)c2ccc(Cl)cc2)csc1C(=O)NC1CCC(C(c2ccccc2)N(C)C)CC1 (stereo not shown): no (0)

Okay, next one:
Dear colleague, could you confirm whether CCCC(=O)N(CCc1c[nH]c2ccccc12)C1CCC(C(c2ccccc2)N(C)C)CC1 (stereo not shown) has inhibition at 1 µM at or above 90%?
yes (1)

====

# System Name: Serotonin (5HT) reuptake (Rattus norvegicus, UniProt P31652)
# Construct: synaptosomes are freshly isolated from areas of rat brain; from tissue; host or cells: rat brain synaptosomes (P2 fraction)
# Sequence (P31652 whole entry): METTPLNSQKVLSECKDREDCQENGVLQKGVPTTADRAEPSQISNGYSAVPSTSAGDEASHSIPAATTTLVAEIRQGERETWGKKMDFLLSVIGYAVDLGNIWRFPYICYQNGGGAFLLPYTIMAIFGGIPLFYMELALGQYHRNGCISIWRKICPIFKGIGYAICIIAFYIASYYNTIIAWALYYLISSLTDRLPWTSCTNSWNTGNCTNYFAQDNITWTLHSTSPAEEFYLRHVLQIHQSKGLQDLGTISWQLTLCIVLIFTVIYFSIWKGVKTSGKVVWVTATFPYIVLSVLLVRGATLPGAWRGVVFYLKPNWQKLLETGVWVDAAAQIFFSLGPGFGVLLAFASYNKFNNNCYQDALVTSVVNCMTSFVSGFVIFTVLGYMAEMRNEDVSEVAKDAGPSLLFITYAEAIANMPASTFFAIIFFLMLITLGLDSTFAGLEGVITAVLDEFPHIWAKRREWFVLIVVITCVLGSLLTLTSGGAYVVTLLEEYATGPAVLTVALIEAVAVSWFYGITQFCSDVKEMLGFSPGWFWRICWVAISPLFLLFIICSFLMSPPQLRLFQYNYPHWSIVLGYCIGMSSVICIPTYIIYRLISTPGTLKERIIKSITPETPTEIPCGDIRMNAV
# Assay Comment: Serotonin (5HT) reuptake inhibition in rat brain synaptosomes (P2 fraction)
# Assay type: biochemical
# Setup Conditions: read-out: Serotonin reuptake, % inhibition [10 μM]
Measured Metric: inhibition at 10 µM (%)
Kindly answer with a numeric value in %, unit omitted.

Examples with answers:
CN(C)C(c1ccc(F)cc1)C1CCC(O)CC1 (centres unmarked): 82
CN(C)C(c1ccc(F)cc1)C1CCC(N)CC1 (centres unmarked): 87
Cc1ccc(C(C2CCC(=CC(=O)NCCc3ccccc3)CC2)N2CCCCC2)cc1 (centres unmarked): 40
CN(C)C(c1ccc(Cl)cc1)C1CCC(CN)CC1 (centres unmarked): 87

Please look at the following compound next.
Kindly note the recorded inhibition at 10 µM for CN(C)C(c1cccc(F)c1)C1CCC(O)CC1 (centres unmarked) , which is 83

====

Measured Ki by item
# System Name: human μ-opiate receptor (Homo sapiens, UniProt P35372)
# Assay Comment: Affinity for the human μ-opiate receptor ([3H]-naloxone displacement, SPA, CHO-K1 membrane preparation)
# Format: binding
# Setup Conditions: read-out: μ-Opioid receptor, Ki
Structures can show the parent of a compound that is named as a salt.
Kindly answer with a numeric value in nM, unit omitted.

Examples with answers:
COc1ccc(C(=O)NC2CCC(C(c3cccs3)N(C)C)CC2)c(OC)c1 (centres unmarked): 31
CN(C)C(c1ccccc1)C1CCC(CNC(=O)c2ccc(F)c(F)c2)CC1 (single isomer, unassigned) [compound 357]: 60
CN(C)C(c1ccc(F)cc1)C1CCC(NC(=O)c2cccc(Br)c2)CC1 (centres unmarked): 28
Cc1ccc(C(=O)NC2CCC(C(c3cccs3)N(C)C)CC2)cc1 (centres unmarked): 15
CN(C)C(c1ccccc1)C1CCC(CNC(=O)c2cccnc2Oc2ccc(Cl)cc2)CC1 (single isomer, unassigned) [compound 383]: 86
CN(C)C(c1ccccc1)C1CCC(NC(=O)Nc2cccc(Br)c2)CC1 (centres unmarked) [compound 77, hydrochloride]: 78
Cc1cc(C(=O)NC2CCC(C(c3ccccc3)N(C)C)CC2)n(C(C)(C)C)n1 (centres unmarked) [compound 247]: 36

Please look at the following compound next.
Kindly note the recorded Ki for COc1c(C(=O)NCC2CCC(C(c3cccc(F)c3)N(C)C)CC2)csc1Cl (centres unmarked) , which is 19

====

# System Name: Serotonin (5HT) reuptake (Rattus norvegicus, UniProt P31652)
# Construct: synaptosomes are freshly isolated from areas of rat brain; from tissue; host or cells: rat brain synaptosomes (P2 fraction)
# Assay Comment: Serotonin (5HT) reuptake inhibition in rat brain synaptosomes (P2 fraction)
# Format: biochemical
# Setup Conditions: rat brain synaptosomes; read-out: Serotonin reuptake, Ki
Measured Metric: Ki (µM)
Kindly answer with a numeric value in µM, unit omitted.

Kindly note the recorded Ki for CN(C)C(c1ccccc1)C1CCC(N)CC1 (stereo not shown) , which is 0.86

====

# System Name: human μ-opiate receptor (Homo sapiens)
# Assay Comment: Affinity for the human μ-opiate receptor ([3H]-naloxone displacement, SPA, CHO-K1 membrane preparation)
# Format: binding
# Setup Conditions: 1 μM; sulfonamides (Table 17); read-out: μ-Opioid receptor, % inhibition [1 μM]
Counter-ions that a name gives are not always drawn.
Measured Metric: inhibition at 1 µM
Could you kindly put the unit after your number?

Kindly note the recorded inhibition at 1 µM for CN(C)C(c1ccccc1)C1CCC(NS(=O)(=O)c2ccc(Cl)cc2)CC1 (centres unmarked) [compound 106, hydrochloride] , which is 96%

Kindly note the recorded inhibition at 1 µM for CN(C)C(c1ccccc1)C1CCC(NS(=O)(=O)c2ccccc2)CC1 (centres unmarked) [compound 110, hydrochloride] , which is 93%

Kindly note the recorded inhibition at 1 µM for CN(C)C(c1ccccc1)C1CCC(NS(=O)(=O)c2ccc(C(C)(C)C)cc2)CC1 (centres unmarked) [compound 108, hydrochloride] , which is 92%

Kindly note the recorded inhibition at 1 µM for CN(C)C(c1ccccc1)C1CCC(NS(=O)(=O)c2ccccc2[N+](=O)[O-])CC1 (centres unmarked) [compound 109, hydrochloride] , which is 92%

Kindly note the recorded inhibition at 1 µM for COc1ccc(S(=O)(=O)NC2CCC(C(c3ccccc3)N(C)C)CC2)cc1 (centres unmarked) [compound 107, hydrochloride] , which is 99%

====

# System Name: human μ-opiate receptor (Homo sapiens, UniProt P35372)
# Assay Comment: Affinity for the human μ-opiate receptor ([3H]-naloxone displacement, SPA, CHO-K1 membrane preparation)
# Assay type: binding
# Setup Conditions: 1 µM
Measured μ-Opioid receptor, % inhibition [1 μM] by item
Kindly answer with a numeric value in %, unit omitted.

Cc1cc(C(=O)NC2CCC(C(c3ccccc3)N(C)C)CC2)n(C(C)(C)C)n1 (stereo not shown): 82

Kindly note the recorded μ-Opioid receptor, % inhibition [1 μM] for CN(C)C(c1cccc(F)c1)C1CCC(CNC(=O)Cc2ccccc2)CC1 (single isomer, unassigned) , which is 89

Kindly note the recorded μ-Opioid receptor, % inhibition [1 μM] for CN(C)C(c1ccc(Cl)cc1)C1CCC(CNC(=O)c2csc3ccccc23)CC1 (single isomer, unassigned) , which is 84

Kindly note the recorded μ-Opioid receptor, % inhibition [1 μM] for CN(C)C(c1ccccc1)C1CCC(NC(=O)c2cncc(Br)c2)CC1 (stereo not shown) , which is 79

Kindly note the recorded μ-Opioid receptor, % inhibition [1 μM] for CCC(C(=O)NC1CCC(C(c2ccccc2)N(C)C)CC1)c1ccccc1 (single isomer, unassigned) , which is 81

Kindly note the recorded μ-Opioid receptor, % inhibition [1 μM] for Cc1ccccc1C(=O)NCC1CCC(C(c2ccccc2)N(C)C)CC1 (single isomer, unassigned) , which is 94

Kindly note the recorded μ-Opioid receptor, % inhibition [1 μM] for CN(C)C(c1cccc(F)c1)C1CCC(CCNC(=O)c2cccc(Cl)c2)CC1 (single isomer, unassigned) , which is 97
